Measured values drawn from patent US20240409617A1 for this set.

# tested system: S1
# experiment summary: BLI
property measured: Kd (nM)
Give the number; nM is assumed, so skip it.

Ab 32 (scFv, V domains shown) VH: QVQLVQSGAEVKKPGESLKISCKGSGYSFTSYWIGWVRQMPGKGLEWMGIIYPGDSDTRYSPSFQGQVTISADKSISTAYLQWSSLKASDTAMYYCARGWQWHDYWGQGTLVTVSS VL: QTVVTQEPAVSVALGQTVRITCQGDSLRSYYASWYQQKPGQAPVLVVYDKDKRPSGIPDRFSGSTSGNTASLTITGAQAEDEADYYCNSRDRSDNHVVFGGGTKLTVL	0.168

Note to self: Kd recorded for Ab 13 (scFv, V domains shown) VH: QVTLKESGPKLVKPTQTLTLTCTFSGFSLSTSGVGVGWIRQPPGKALEWLALIYWDDDKRYSPSLKSRLTIAKDTSKYQVVLTMTNMDPVDTATYYCARISGSGYFYPFDIWGQGTMVTVSA VL: NFMLTQPHSVSESPGKTVTISCTRSSGSIASNYVQWYQQRPGSAPTTVIYEDNQRPSGVPDRFSGSIDSSSNSASLTISGLKTEDEADYYCQSYDSSNLWVFGGGTKLTVL was 1.14
